- experimental.system: 14-3-3ε (Homo sapiens, UniProt P62258)
- Construct: Plasmids containing the cDNAs of the full-length 14-3-3 isoforms ε, γ, and ζ were received
- Sequence (P62258 whole entry, canonical isoform): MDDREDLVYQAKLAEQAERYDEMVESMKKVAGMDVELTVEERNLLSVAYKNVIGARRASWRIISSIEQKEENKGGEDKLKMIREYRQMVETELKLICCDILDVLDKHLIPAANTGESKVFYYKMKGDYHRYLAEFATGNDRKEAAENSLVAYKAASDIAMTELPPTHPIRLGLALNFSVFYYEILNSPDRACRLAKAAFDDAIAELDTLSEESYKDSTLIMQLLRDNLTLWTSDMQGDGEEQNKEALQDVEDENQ
- assay.comment: biochemical
- Method: The seven full-length human 14-3-3 isoforms, produced as fusions to a maltose-binding protein (MBP), were analyzed for their interaction with four phospho-PBMs from E6 proteins of HPV types 16, 18, 33, and 35 belonging to subgroups 1 and 2 (as defined in Supplementary Fig. 1). For comparison, we also measured two non-viral phospho-PBMs originating from protein kinase RSK1[28]. […]
pKd: −log10 of the molar value. Starred links: 1 amine or outer side, 2 acyl side, 3 side chain; linkers in the order of their positions; H or OH if unused. Non-standard residues stand in square brackets, D forms with d. Residues, ends and D or L forms follow the SMILES beside them. *: point of attachment. X1 = O=C(CCCC[C@@H]1SC[C@@H]2NC(=O)N[C@@H]21)NCCCOCCOCCOCCCN*; pT = C[C@@H](OP(=O)(O)O)[C@H](N)C(=O)O; Suc = O=C(CCC(=O)[*:2])[*:1]

[
  {
    "compound": "CC(C)[C@H](NC(=O)[C@H](C)NC(=O)[C@@H](NC(=O)[C@H](CCC(=O)O)NC(=O)[C@H](CCCNC(=N)N)NC(=O)[C@H](CCCNC(=N)N)NC(=O)[C@@H](NC(=O)[C@@H]1CCCN1C(=O)[C@H](CCCCN)NC(=O)[C@H](CO)NC(=O)CCC(=O)NCCCOCCOCCOCCCNC(=O)CCCC[C@@H]1SC[C@@H]2NC(=O)N[C@@H]21)[C@@H](C)O)[C@@H](C)OP(=O)(O)O)C(=O)O [pHPV35E6E-1A] ({X1-Suc}-SKPTRRE[pT]AV-OH)",
    "pKd": 4.50
  }
]
